System: A498 renal
ASSAY OVERVIEW: NCI-60 one-dose screen, 48 h (100 = growth as untreated, 0 = no growth, -100 = all killed)
CONDITIONS: 10 µM
The panel holds about 83,000 compounds, 20% with a hit somewhere; the sample as a whole holds those more often. Active and inactive are the calls of the source. The calls were made as follows: active = growth percent below 10; inactive = the rest.
Listed next: entries and their corresponding growth.

For orientation, consider the following solved cases.
COc1ccc(/C=C/c2cc(OC)c(OC)c(OC)c2)cc1NC(=O)/C=C/c1ccc(F)cc1: -3.96% (active)
NC1CC2CCCCC2CC1(O)c1ccccc1 (centres undefined): 89.8% (inactive)

Q. Please look up its growth: O=C1C2CCC1C(N1CCCC1)CC2 (centres undefined)
A. 92.2% (inactive)

Q. Please look up its growth: CC(C)COC(C[N+](=O)[O-])C(Cl)(Cl)Cl (centres undefined)
A. 84.6% (inactive)
